Measured AUC, listed per entry.
- ASSAY_REMARKS: Pharmacokinetic profile, rat assay (IV)
- Format: in vivo
- TEST_CONDITIONS: plasma, dose 3 mg/kg
- Procedure: The pharmacokinetic profiles of compounds are determined by measuring the compound concentration in plasma by LC/MS/MS following a single intravenous or peroral administration of the compounds at a dose of 1 or 3 mg/kg individually or in a cassette of up to 5 compounds. The concentrations are described as the mean plasma concentrations at each time point from three animals. Intravenous dose formulation is administered as a single bolus dose through the tail vein. […]
EXPERIMENTAL_READOUT: AUC (ng·h/mL)

MOLECULE: CCNC(=O)Nc1nc2cc(-c3cnc(C(C)O)nc3)cc(-c3ccccn3)c2s1 (stereo not drawn) [Compound 17]
EXPERIMENTAL_READOUT: AUC
UNITS: ng·h/mL
READOUT_VALUE: 4000
--
MOLECULE: CCNC(=O)Nc1nc2cc(-c3ccc(CO)nc3)cc(-c3ccccn3)c2s1 [Compound B, reference compound]
EXPERIMENTAL_READOUT: AUC
UNITS: ng·h/mL
READOUT_VALUE: 1800
--
MOLECULE: CCNC(=O)Nc1nc2cc(-c3cnc(CO)nc3)cc(-c3ccccn3)c2s1 [Compound A, reference compound]
EXPERIMENTAL_READOUT: AUC
UNITS: ng·h/mL
READOUT_VALUE: 2000
